# Test system: Patient #1 B-ALL primary leukemia cells
# experiment: Cytotoxicity assay, primary sample Patient #1
# Assay type: cell-based, human
# cond: Homo sapiens, 96 h, four days in culture, Alamar blue assay or automated microscopy, one complete study
Each item that follows carries a reported log10 of IC50.
measured.endpoint: log10 of IC50 (log10 of the value in nM)

- compound: "Cc1nc(N)sc1-c1ccnc(Nc2ccc(N3CCOCC3)cc2)n1 [CYC116]"
  study.target: "Patient #1 B-ALL primary leukemia cells"
  measured.endpoint: "log10 of IC50"
  readout.value: 1.00
- compound: "COc1cc(Nc2ncc3c(n2)-c2ccc(Cl)cc2C(c2c(F)cccc2OC)=NC3)ccc1C(=O)O [MLN8237]"
  study.target: "Patient #1 B-ALL primary leukemia cells"
  measured.endpoint: "log10 of IC50"
  readout.value: 0.78
- compound: "Cc1cc(Nc2cc(N3CCN(C)CC3)nc(Sc3ccc(NC(=O)C4CC4)cc3)n2)[nH]n1 [VX-680]"
  study.target: "Patient #1 B-ALL primary leukemia cells"
  measured.endpoint: "log10 of IC50"
  readout.value: -1.05
- compound: "CCc1cccc(CC)c1NC(=O)N1Cc2n[nH]c(NC(=O)c3ccc(N4CCN(C)CC4)cc3)c2C1 [PHA-680632]"
  study.target: "Patient #1 B-ALL primary leukemia cells"
  measured.endpoint: "log10 of IC50"
  readout.value: 1.00
- compound: "CCS(=O)(=O)Nc1ccc2c(c1)/C(=C(/Nc1ccc(CN3CCCCC3)cc1)c1ccccc1)C(=O)N2 [Hesperadin]"
  study.target: "Patient #1 B-ALL primary leukemia cells"
  measured.endpoint: "log10 of IC50"
  readout.value: -1.40
- compound: "CO[C@@H](C(=O)N1Cc2n[nH]c(NC(=O)c3ccc(N4CCN(C)CC4)cc3)c2C1)c1ccccc1 [PHA-739358]"
  study.target: "Patient #1 B-ALL primary leukemia cells"
  measured.endpoint: "log10 of IC50"
  readout.value: -0.05
- compound: "O=C(Nc1c[nH]nc1-c1nc2ccc(CN3CCOCC3)cc2[nH]1)NC1CC1 [AT9283]"
  study.target: "Patient #1 B-ALL primary leukemia cells"
  measured.endpoint: "log10 of IC50"
  readout.value: 0.48

* * *

# Tested on: Patient #4 infant leukemia primary cells
# experiment: Cytotoxicity assay, primary sample Patient #4
# Format: cell-based, human
# cond: Homo sapiens, 96 h, four days in culture, Alamar blue assay or automated microscopy, one complete study
# Procedure: These include B-ALL (Patient #1), relapsed AML (Patient #2), AML/CML (Patient #3), infant ALL (Patient #4), and initial ALL presenting with secondary AML (Patient #5). […] Cells were re-suspended in Opti-MEM and viable cells were counted using trypan blue (Invitrogen, Life Technologies Corporation, Burlington, Ontario) exclusion on a haemocytometer. […] For automated inverted microscopy, the number of cells in each well was determined using the direct cell counting application as described previously. […]
pIC50: −log10 of the molar value.
measured.endpoint: pIC50

- smiles.input: "O=C(Nc1c[nH]nc1-c1nc2ccc(CN3CCOCC3)cc2[nH]1)NC1CC1"
  study.target: "Patient #4 infant leukemia primary cells"
  readout.qualifier: "="
  readout.value: 5.30
- smiles.input: "CCN(CCCOc1ccc2c(Nc3cc(CC(=O)Nc4cccc(F)c4)n[nH]3)ncnc2c1)CCOP(=O)(O)O"
  study.target: "Patient #4 infant leukemia primary cells"
  readout.qualifier: "<"
  readout.value: 5.00
- smiles.input: "COc1cc(Nc2ncc3c(n2)-c2ccc(Cl)cc2C(c2c(F)cccc2OC)=NC3)ccc1C(=O)O"
  study.target: "Patient #4 infant leukemia primary cells"
  readout.qualifier: "="
  readout.value: 5.52
